Molecular target: plasma kallikrein (Homo sapiens, UniProt P03952)
Construct: from tissue
Sequence (P03952 391-638 limits assumed): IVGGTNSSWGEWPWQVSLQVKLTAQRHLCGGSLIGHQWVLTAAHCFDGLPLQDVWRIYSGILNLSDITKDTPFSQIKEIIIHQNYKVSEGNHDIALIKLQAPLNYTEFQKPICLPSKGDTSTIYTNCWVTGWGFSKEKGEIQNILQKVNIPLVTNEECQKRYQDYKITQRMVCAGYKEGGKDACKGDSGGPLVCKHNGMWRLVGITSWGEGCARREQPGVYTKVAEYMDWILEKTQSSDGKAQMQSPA
Sequence (P03952 20-390 partner limits assumed): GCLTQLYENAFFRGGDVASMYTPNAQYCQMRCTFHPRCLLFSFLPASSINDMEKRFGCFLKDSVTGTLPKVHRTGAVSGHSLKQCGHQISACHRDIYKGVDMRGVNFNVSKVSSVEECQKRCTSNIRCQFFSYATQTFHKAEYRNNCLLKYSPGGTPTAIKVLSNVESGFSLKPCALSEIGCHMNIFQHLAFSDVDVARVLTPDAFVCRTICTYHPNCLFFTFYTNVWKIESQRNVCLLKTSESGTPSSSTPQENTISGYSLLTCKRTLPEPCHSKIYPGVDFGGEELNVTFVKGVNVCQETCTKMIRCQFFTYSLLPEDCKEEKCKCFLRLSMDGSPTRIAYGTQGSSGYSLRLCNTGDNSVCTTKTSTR
Assay: Neat human plasma assay, FXIIa contact pathway-activated, PFR-AMC substrate
Type: biochemical
Settings: citrated human plasma 78% final, 10 nM human FXIIa, 100 μM PFR-AMC; read-out: Human Plasma Assay: IC90
The entries below are paired with their reported IC90.

Below are worked cases with known answers.
INSERT INTO assay_data (molecule, tested_system, reported_result) VALUES
  ('CN1CCC(F)(c2cc(C3CC3)cn3cc(CNc4ccnc(NC(=O)[C@H]5C[C@@H]5c5cccc(Cl)c5)c4)nc23)CC1 [Example I-229]', 'plasma kallikrein (Homo sapiens, UniProt P03952)', '< 400 nM'),
  ('Cc1ccnc([C@H]2C[C@@H]2C(=O)Nc2cc(Cc3cn4cc(C5CC5)cc(N5CC(=O)N(C)C5=O)c4n3)ncn2)n1 (racemic) [Example 620]', 'plasma kallikrein (Homo sapiens, UniProt P03952)', '400 to 1500 nM'),
  ('O=C(Nc1cc(NCc2cn3cc(C4CC4)cc(N4CC(=O)N(CC(F)(F)F)C4=O)c3n2)ccn1)[C@H]1C[C@@H]1c1cccc(Cl)c1 [Example 512]', 'plasma kallikrein (Homo sapiens, UniProt P03952)', '1500 to 10000 nM'),
  ('Cc1ccnc([C@H]2C[C@@H]2C(=O)Nc2cc(NCc3cn4cc(C5CC5)cc(-n5[nH]c(=O)n(C)c5=O)c4n3)ncn2)n1 (racemic) [Example 386]', 'plasma kallikrein (Homo sapiens, UniProt P03952)', '1500 to 10000 nM'),
  ('O=C(Nc1cc(NCc2cn3cc(C4CC4)ccc3n2)cc(=O)[nH]1)[C@H]1C[C@@H]1c1cc(Cl)ccn1 [Example 343]', 'plasma kallikrein (Homo sapiens, UniProt P03952)', '1500 to 10000 nM'),
  ('CN(C)CCc1cc(C2CC2)cn2cc(CNc3ccnc(NC(=O)[C@H]4C[C@@H]4c4cccc(Cl)c4)c3)nc12 [Example 598]', 'plasma kallikrein (Homo sapiens, UniProt P03952)', '< 400 nM'),
  ('O=C(Nc1cc(NCc2cn3cc(C4CC4)cc(N4CC5(C4)CN(C4CC4)C5)c3n2)ccn1)[C@H]1C[C@@H]1c1cccc(Cl)c1 [Example I-24]', 'plasma kallikrein (Homo sapiens, UniProt P03952)', '1500 to 10000 nM');

Proceeding to the next molecule to report its IC90.
Query block: Give reported IC90 value for Cc1ccnc([C@H]2C[C@@H]2C(=O)Nc2ncc(C(F)(F)F)c(OCc3cn4cc(C5CC5)cc(N5CC(=O)N(C)C5=O)c4n3)n2)n1 (racemic) [Example 628]
Result block: 400 to 1500 nM
